SYSTEM_NAME: T1, BSA (bovine serum albumin) (bovine (송아지 혈청 알부민), UniProt P02769 25-607)
T1 construct: Negative control antigen of the phage ELISA; also called 송아지 혈청 알부민
EXPERIMENT: phage ELISA, 1% BSA coated, anti-M13 peroxidase, OD 492 nm
ASSAY_READOUT: binding result

INSERT INTO results (binder, reading) VALUES
  ('SC06-198 (scFv) scFv: QLQLQESGPGLVKPSETLSLTCAVSGYSITSGYYWGWVRQPPGKGLEWIGSIYHTGSTYYNPSLKSRVTISVDTSKNQFSLKLNSLTAADTAVYFCASQSPAFDFWGQGTMVTVSSGTGGSGGTGSGTGGSTQSVLTQPPSVSGAPGQRVTISCTGSSSNIGTGYDVHWYQQLPGTAPKLLIYGNNNRPSGVPDRFSGSKSGTSASLAITGLQAEDEADYYCATWDDSLNGWVFGGGTKLTVP', 'no binding'),
  ('SC06-241 (scFv) scFv: EVQLVESGGGLVQPGRSLRLSCAASGFTFRSYAMYWVRQAPGKGLEWLALISHDASKMFYADSVKGRFTISRDNSKNTLSLQMNSLTIEDTAVYYCVRERTGYYGAYWGQGTLVTVSSGTGGSGGTGSGTGGSTDIQMTQSPSSLSASVGDRVTLTCRASQGIGTWLAWYQQKPGKAPKLLIYSASSLQSGVPSRFSGSGSGTDFTLSISNLQPEDFATYYCQQANSFPITFGQGTRLEIK', 'no binding'),
  ('SC06-089 (scFv) scFv: EVQLVETGGGLVQPGGSLRLSCAASGFTFSSYSMNWVRQAPGKGLEWVSFISSSSSTIYYADSVKGRFTIARDNAKNSLYLQMNSLRDEDTAVYYCARPVGTGISLFHAFDIWGQGTMVTVSSGTGGSGGTGSGTGGSTQSVLTQPPSVSVAPGQTARITCGGNNIGSKYVHWYQQKPGQAPVLVVYDDSDRPSGIPERFSGSNSGNTATLTISRVEAGDEADFYCQVWDGSSDPVVFGGGTKLTVL', 'no binding');
